- Target or test system: Calmodulin-1 (Homo sapiens)
- Run description: small molecules binding calmodulin-1 with EGTA – biochemical, small-molecule microarray, Cy5-labelled CALM1, profiling panel (AID 1111);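 also: labelled calmodulin applied in Tris saline Tween buffer holding calcium plus EGTA and DTT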
- Condition notes: Cy5-CALM1 binding fluorescence, higher = more signal
Measured endpoint: composite z-score
Just the number.

Please report composite z-score for the following molecule: `COCCOC(=O)N1C(=O)[C@@]2(c3cc(C#CCCO)ccc31)[C@H](c1ccc(OCCO)cc1)N1[C@H](c3ccccc3)[C@H](c3ccccc3)OC(=O)[C@H]1[C@@H]2C(=O)N1CCc2cc(OC)c(OC)cc2C1` 0.759

Please report composite z-score for the following molecule: `COC(=O)[C@@]1(Cc2ccccc2)[C@H]2c3cc(C(=O)N(C)C)n(Cc4ccc(O)c(OC)c4)c3C[C@H]2CN1C(=O)c1ccccc1` 1.46

Please report composite z-score for the following molecule: Cc1ccccc1C(O)C1C=CC2C(=O)N(Cc3ccccc3)C(=O)C2N1n1cnnc1 (centres undefined) 0.0712

Please report composite z-score for the following molecule: `COCCOC(=O)N1C(=O)[C@@]2(c3cc(C#Cc4ccc(OC)cc4)ccc31)[C@H](C(=O)N1CCc3cc(OC)c(OC)cc3C1)[C@H]1C(=O)O[C@H](c3ccccc3)[C@H](c3ccccc3)N1[C@@H]2c1ccc(O)cc1` 0.111

Please report composite z-score for the following molecule: `O=C(O)[C@@]1(Cc2ccccc2)COC(c2ccc(OCCCO)cc2)=N1` -0.106

Please report composite z-score for the following molecule: `CCCC=C(CCC)[C@@H](NS(=O)(=O)c1ccccc1)c1ccc(C(F)(F)F)cc1` 1.73

Please report composite z-score for the following molecule: `C[N+](C)(C)CCCC[C@@H]1NC(=O)[C@@H]2C[C@H](C(=O)NCCCCCNC(=O)CS)[C@H](c3cccc(OCCO)c3)N2C1=O` -0.0534

Please report composite z-score for the following molecule: O=C1C2C=CC(C(O)c3ccc(Br)cc3)N(Nc3ccccc3)C2C(=O)N1c1ccccc1 (centres undefined) 0.863

Please report composite z-score for the following molecule: `C=C[C@H](C)[C@H](OC(=O)Nc1ccc(SC)cc1)c1ccc(O)c2ccccc12` -0.413

Please report composite z-score for the following molecule: C=C(C)[C@@H]1CC=C(C(O)C2C=CC3C(=O)N(C4CCCCC4)C(=O)C3N2Nc2ccc(OC)cc2)CC1 (some centres undefined) 1.5

Please report composite z-score for the following molecule: `O=[N+]([O-])c1ccc(C[n+]2ccc(-c3ccc(CO)cc3)cc2)o1` -0.165

Please report composite z-score for the following molecule: `COC(=O)C(CC#Cc1ccc2c(c1)[C@]1(C(=O)N2)[C@H](C(=O)N2CCc3cc(OC)c(OC)cc3C2)[C@H]2C(=O)O[C@H](c3ccccc3)[C@H](c3ccccc3)N2[C@@H]1c1ccc(O)cc1)C(=O)OC` 1.35

Please report composite z-score for the following molecule: `COCCCNC(=O)[C@@]1(Cc2ccccc2N=[N+]=[N-])N=C(c2ccc(OCCCO)cc2)O[C@H]1c1ccccc1CN=[N+]=[N-]` 0.941

Please report composite z-score for the following molecule: `O=C1O[C@H](c2ccccc2)[C@H](c2ccccc2)N2[C@H]1[C@@H](C(=O)NC[C@H](O)c1ccccc1)[C@]1(C(=O)Nc3ccccc31)[C@H]2c1ccccc1OCCO` 1.31
